# assay-explanation: gradient 5% acetonitrile 3 min, to 50% in 2 min, to 85% in 15 min, held 3 min, 100 µL/min
# setup-conditions: column: Zorbax Extend-C18 2.1 x 50 mm; eluents: water / acetonitrile, 0.1% formic acid
Exercise: state measured RP-LC retention time for each of the compounds provided.
Write the figure, then the unit, nothing else.

// field: RP-LC retention time; key: COc1ccc(CC(=O)N2CCN(c3cc(C)n4c(C)nnc4n3)CC2)cc1OC ; value = 578 s

Reported RP-LC retention time ( CC(Oc1c(Cl)cccc1Cl)C1=NCCN1 (centres undefined) ) = 622 s

Value of RP-LC retention time reported for the compound COc1cc(CN2CCc3nc(N4CCC(C)CC4)ncc3C2)ccc1OC(C)C is 764 s

// CN1c2cc(F)ccc2C(=O)NC12CCN(C(=O)c1cccc(Cl)c1)CC2 : RP-LC retention time value = 800 s

====

For each record, write down the corresponding RP-LC retention time.
# assay-explanation: gradient 5% acetonitrile 3 min, to 50% in 2 min, to 85% in 15 min, held 3 min, 100 µL/min
# setup-conditions: column: Zorbax Extend-C18 2.1 x 50 mm; eluents: water / acetonitrile, 0.1% formic acid
Note: unit s is implicit; provide only the numeric part.

Data point: COC(=O)CCc1sc(Nc2ccc(OC)cc2)nc1-c1ccc(OC)cc1 ; RP-LC retention time = 909

Record summary for COc1ccc(-c2nnc(-c3ccc(C)c(S(=O)(=O)NCc4cccs4)c3)o2)cc1OC : reported RP-LC retention time = 917

Briefly, RP-LC retention time measured for COc1ccc(OC)c(S(=O)(=O)N2CCC(n3cnc4c(C)cccc4c3=O)CC2)c1 : 918

Cn1c(N2CCCC(C(=O)NCc3ccc4c(c3)OCO4)C2)cc(=O)n(C)c1=O (centres undefined) has a reported RP-LC retention time of 671

Quick note, RP-LC retention time for CSc1ccc(Cl)c(-c2nc(-c3ccc4c(c3)oc(=O)n4C)no2)c1 landed at 1170

Per the records, this compound ( O=C(Cn1cnc2nc(N3CCC(C(=O)NC4CC4)CC3)sc2c1=O)Nc1cc(F)ccc1F ) has RP-LC retention time equal to 693

# compound CCC(=O)N1CCc2sc(S(=O)(=O)N3CCN(c4cccc(C)c4)CC3)cc2C1 ; its RP-LC retention time = 1010

Entry Cc1ccc(NC(=O)C(=O)NC(C)c2ccccc2)cc1C (centres undefined) — recorded RP-LC retention time = 1010

The compound listed as COc1ccccc1-c1csc(NC(=O)c2sc(COc3cccc(C)c3)nc2C)n1 has a reported RP-LC retention time of 1250

For record COc1ccc2nc(C(=O)NCc3ccccc3C)cn2n1 the listed RP-LC retention time is 843

response.value for O=C(Cc1cccs1)NCc1nnnn1-c1ccc(Cl)cc1 (field: RP-LC retention time) = 747

RP-LC retention time measured on Cn1ccc2cc(S(=O)(=O)N3CCCC(C(=O)NCCN4CCCCCC4)C3)ccc21 (centres undefined) = 668

// RP-LC retention time lookup, compound = CC(C)CC(=O)N1CCc2c(c(C(=O)N3CCCC(C(=O)Nc4ccccc4)C3)nn2C)C1 (centres undefined) , result: 747

Form: compound = Cc1nc(N2CCOCC2)c2c(C(=O)Nc3ccc(Cl)cc3)c(C)oc2n1 ; RP-LC retention time = 883

====

# assay-explanation: gradient 5% acetonitrile 3 min, to 50% in 2 min, to 85% in 15 min, held 3 min, 100 µL/min
# setup-conditions: column: Zorbax Extend-C18 2.1 x 50 mm; eluents: water / acetonitrile, 0.1% formic acid
Heads up, the class ranges for RP-LC retention time are range A = under 700 s, range B = from 700 s up to 900 s, range C = 900 s and over

Form field 'band' for COc1ccc2nc(N3CC(C(=O)N4CCc5cc(OC)c(OC)cc5C4)C3)sc2c1
range A

Which RP-LC retention time category applies to Cn1c(=O)sc2cc(S(=O)(=O)N3CCC(C(=O)Nc4ccc(F)cc4)CC3)ccc21 here?
range B

Hi there! Could you help me figure out the category for C=CCOC(=O)/C=C\C(=O)NC(N)=O please?
range A

Category of O=C(Cn1nc2n(c1=O)CCCC2)Nc1ccc(F)c(Cl)c1 :
range A

Category of CC1(C)CC(=O)CC(C)(C)N1O :
range A

GET /class?item= O=C(Cn1cnc2c(nnn2Cc2ccc(F)cc2)c1=O)N1CCCc2ccccc21
range B

Using the reported RP-LC retention time, which band applies to CCc1cc(C(=O)Nc2ccccc2OC)nc2ccnn12 ?
range C

Which bin, given its RP-LC retention time, does O=C(Nc1ccc2c(c1)OCO2)C(=O)c1ccc[nH]1 occupy?
range B

Just checking, what class would you give CCc1cc(C(=O)N2CCCCCC2)nc2cc(-c3ccsc3)nn12 here?
range C

Hey, which category is O=C(Cn1cccc1-c1nnc(-c2ccccc2)o1)N1CCc2ccccc21 in, do you know?
range C

Which class holds Cc1cc(-c2nnc(-c3ccccc3)o2)c(C)n1CC(=O)Nc1cccc(Cl)c1 ?
range C

Which category does the recorded RP-LC retention time put Cc1ccc(-c2csc(NC(=O)Cc3csc(-c4ccccc4)n3)n2)cc1C in?
range C

Where would O=C(NCc1ccc(-c2noc(-c3n[nH]c4c3CCCC4)n2)s1)C1CC1 land among the classes by reported RP-LC retention time?
range B

Classify this molecule: O=C(NC1CCCCCC1)C1CCCN(c2ccnc(-c3ccc(F)cc3)n2)C1 (stereo not drawn)
range B

Which RP-LC retention time band matches O=S(=O)(c1ccccc1)N1CCC(N2C[C@H](Oc3ccccc3)[C@@H]2c2ccncc2)CC1 ?
range B

Sort c1cc(-c2nc3c(c(N4CCSCC4)n2)CCC3)ccn1 into one of the categories.
range A

Note: place this molecule into its band. Item: COC(=O)c1ccc(C2CC(=O)Nc3cc(OC)cc(OC)c32)cc1 (stereo not drawn)
range B

Kindly identify the class of Cc1ccc(C(=O)N2CCN(c3nnc4ccccn34)CC2)cc1C .
range A

Consider NC(=O)CSc1nnc(N2CCN(C(=O)c3cc4ccccc4o3)CC2)s1 . To which RP-LC retention time class does it belong?
range A

Into which category would you place CC(C)n1c2ccccc2c2nnc(SCC(=O)Nc3nc(-c4ccccc4)cs3)nc21 ?
range C

====

Please provide measured RP-LC retention time for the entries that follow.
# assay-explanation: gradient 5% acetonitrile 3 min, to 50% in 2 min, to 85% in 15 min, held 3 min, 100 µL/min
# setup-conditions: column: Zorbax Extend-C18 2.1 x 50 mm; eluents: water / acetonitrile, 0.1% formic acid
Write the number in s without appending the unit.

// sample COc1cccc(S(=O)(=O)N2CC(F)(F)C[C@H]2CN2CCc3ccccc3C2)c1 , its RP-LC retention time was 807

Record Cc1ccc(N2C=C(C(=O)N3CCOCC3)S(=O)(=O)c3ccc(F)cc32)cc1F , field RP-LC retention time: 822

Entry CCn1ccc2sc(C)c(C(=O)NCc3ccc(OC)cc3OC)c2c1=O , RP-LC retention time reported as 814

Looking up Cn1cnc(S(=O)(=O)N2CCC(Oc3ccc(-c4noc(C5CC5)n4)cc3)C2)c1 (stereo unspecified) , I found its RP-LC retention time recorded as 788

Sample Cc1noc(C)c1-c1ccc(S(=O)(=O)NC(C)C)cc1 ; RP-LC retention time observed: 812

Entry CCc1nnc(NC(=O)Cc2csc(-n3cccc3)n2)s1 , RP-LC retention time reported as 701

Entry under test: Cc1cc(C(=O)Nc2ccc(Cl)cc2)nc2cc(-c3ccco3)nn12 . Its RP-LC retention time was 1170

The compound CCNC(=O)N1CCCC(c2cccc(C(=O)NC3CCCC3)c2)C1 (stereo unspecified) showed RP-LC retention time equal to 764

# compound COC(=O)[C@H](CCSC)NC(=O)c1ccc(-n2cnnn2)cc1 ; its RP-LC retention time = 693

RP-LC retention time measured on O=c1c2cc(-c3ccc4c(c3)OCO4)nn2ccn1Cc1nc(-c2ccc(F)c(Cl)c2)no1 = 805

The value of RP-LC retention time measured for the compound O=S(=O)(c1cccc(-c2nc(-c3ccccc3)no2)c1)N1CCCC1 turned out to be 1130

Kindly note the recorded RP-LC retention time for CCOc1ccc(S(=O)(=O)N2CCC(C(=O)N(CC)CC)CC2)cc1C , which is 934

RP-LC retention time reported for this compound COc1cccc(NC(=O)CN2CCc3[nH]c4c(OC)ccc(Cl)c4c(=O)c3C2)c1 : 610

// field: RP-LC retention time; key: Cc1ccc(NC(=O)Nc2nc(C(=O)N3CCN(C(=O)c4ccco4)CC3)cs2)cc1 ; value = 704

Entry under test: O=C(NCc1ccccc1F)C1CCCN(c2nc3ccsc3c(=O)n2Cc2ccc(F)cc2)C1 (stereo unspecified) . Its RP-LC retention time was 958

# RP-LC retention time of Cc1[nH]c(C(=O)N2CCC(CC(=O)NCc3ccc(Cl)cc3)CC2)c(C)c1C(=O)OC(C)C = 878
